Give protein stability index for every item shown.
B1: CLCN6 (parent)
chain: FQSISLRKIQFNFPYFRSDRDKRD

# Variants of: B1
# TEST_METHOD_NOTES: protein stability index of a GFP-peptide fusion (GPS, HEK-293T) (PSI 1-6); higher = more stable;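 also: lentivirally expressed fusions sorted by FACS into six bins by GFP to DsRed ratio, PSI derived from sequencing read proportions per bin multiplied by bin number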
# MEASUREMENT_PARAMETERS: c terminus: a fixed tail appended
Numbers only.

INSERT INTO assay_data (primary_sequence, property_measured, data_value) VALUES
  ('FQSISLRKIQFNFPYFRSDRDHRD [K22H]', 'protein stability index', 1.34),
  ('FQSISLRKIQFNFPYFRSDRDQRD [K22Q]', 'protein stability index', 1.68),
  ('FQSISLRKIQFIFPYFRSDRDKRD [N12I]', 'protein stability index', 2.06);

Record protein stability index for all entries; do not skip any.
1. NQSISLRKIQFNFPYFRSDRDKRD [F1N]
2. FQSISLRKIQFNCPYFRSDRDKRD [F13C]

[3.76, 2.2]
